- test method notes: NOD1 signaling inhibitors, primary screen, cell-based, luminescence, uHTS (AID 1578);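 note: HEK-293T reporter cells stimulated with the NOD1 agonist gamma-tri-DAP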
- condition info: NOD1-driven NF-kB luciferase reporter cells, at 4 µM
The whole screen tested about 290,000 compounds, of which about 3,000 (1%) were called active. Cut-off read from the data, not from the text of the source: active = inhibition mostly above about 36% (no sharp cut-off); inactive = mostly below about 34%. For the sample, actives were picked, then their nearest neighbours and some compounds at random.
Entry note: the call must match one of Y (active), N (inactive)

Which result was noted for this compound in the test: O=C(NCCc1ccccc1)C(=O)NCC1OCCN1S(=O)(=O)c1ccc(Cl)cc1 (stereo not given)
N

For "NNC(=O)Cn1c(-c2ccccn2)nc2ccccc21" , what call appears in the results of this test?
N

Would you mind telling me which call this test gave "Cc1ccc(C)c(N2CCN(C(=O)CCNC(=O)Cn3ccc4ccccc4c3=O)CC2)c1" ?
N

Dear colleague, could you share the recorded outcome for "O=C(c1ccc(S(=O)(=O)Cc2ccccc2Cl)c([N+](=O)[O-])c1)N1CCOCC1" when you have a moment?
N

What classification did O=C1C(=O)N(CCCN2CCOCC2)C(c2ccc([N+](=O)[O-])cc2)/C1=C(/O)c1ccc2c(c1)OCO2 (stereo not given) end up with in this test?
N

Look up the recorded call for O=C1C2CC=CCC2C(=O)N1Cc1ccccc1Cl (stereo not given) in this test.
N

Hello, I am checking results. What call was entered for "COCCn1c(=S)[nH]c2cc(C(=O)N3CCN(c4cccc(Cl)c4)CC3)ccc2c1=O" ?
N

// param item: "CC(=O)c1c(C)[nH]c(C(=O)OCC(=O)Nc2ccccc2Cl)c1C" ; yields the recorded call
Y

Test call, this compound: "Cc1cccc(N2CCN(Cc3nc(-c4ccc(F)cc4F)oc3C)CC2)n1"
N

Which result was noted for this compound in the test: "Cc1oc(-c2cc(F)ccc2F)nc1CN1CCN(c2cnccn2)CC1"
N

Outcome? "CCSc1nnc(NC(=O)c2cccc(S(=O)(=O)N(C)c3ccccc3)c2)s1"
N

Recorded test call requested for "CC(=O)c1c(C)[nH]c(C(=O)OCC(=O)Nc2ccc([N+](=O)[O-])cc2Cl)c1C"
N

Identify the outcome logged in this assay for the compound shown: "CCC/C(C)=C/c1ccc(CC)cn1"
N

Recorded call for "C=CCn1c(=O)c2c3c(sc2n2c(Nc4ccc(C(=O)OCC)cc4)nnc12)CCCC3" ?
N

Any idea what this test logged for "c1ccc(COc2cccc(CNCc3cccs3)c2)cc1" ?
N

---

- test method notes: NOD1 signaling inhibitors, primary screen, cell-based, luminescence, uHTS (AID 1578);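 note: HEK-293T reporter cells stimulated with the NOD1 agonist gamma-tri-DAP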
- condition info: NOD1-driven NF-kB luciferase reporter cells, at 4 µM
Screen size: about 290,000 compounds; about 3,000 (1%) were called active. Cut-off read from the data, not from the text of the source: active = inhibition mostly above about 36% (no sharp cut-off); inactive = mostly below about 34%. This excerpt belongs to a sample that is enriched for actives.
In this exercise, the only acceptable responses are active, inactive

molecule	label value
CCc1nc(SCC(=O)N2CCC(Cc3ccccc3)CC2)c2c(=O)n(C)c(=O)n(C)c2n1	inactive
Cn1nc([N+](=O)[O-])c(C(C#N)c2ccccn2)c(Cl)c1=O (stereo not drawn)	inactive
Cc1nc2cc(-c3ccccc3)sc2c(=O)n1N	active
Cc1nc2sc(-c3ccccc3)cc2c(=O)n1N	active
O=C(Nc1ccc2c(c1)OCO2)Nc1ccc2c(c1)OCO2	inactive

# fetch the recorded call for "O=C(N/C(=C\c1cccs1)C(=O)N1CCOCC1)c1ccco1" here
inactive

Outcome logged for "CSc1nc2sc(-c3ccccc3)cc2c(=O)n1N" in this assay:
inactive

What call does the record list for "CCOC(=O)c1cnc(Nc2nc3ccccc3o2)nc1CN1CCN(C)CC1" ?
inactive

// param item: "COc1cc(OC)cc(C(=O)Nc2ccc(S(=O)(=O)N3CCOCC3)cc2)c1" ; yields the recorded call
inactive

Hi team, can someone confirm the assay call for "Cn1c(-c2ccccc2)cnc1SCC(=O)N1CCCCC1" ?
active

What is the recorded call for this molecule in the test? "Cc1cccc(Nc2nc(N)nc(CN3CCC(C)CC3)n2)c1C"
inactive

Identify the outcome logged in this assay for the molecule shown: "C=CCn1c(=O)c2c(nc3n2CCS3)n(C)c1=O"
inactive

Hi team, can someone confirm the assay call for "CCc1c(C)nc2ncnn2c1NCCc1ccc(OC)cc1" ?
inactive

# fetch the recorded call for "C=C(C)CN(CC)C(=O)c1ccc(OC2CCN(S(=O)(=O)N(C)C)CC2)cc1" here
active

How did this test come out for CCC(C)NC(=O)Cn1cc2c(n1)CCC(C)C2 (stereo not drawn) ?
inactive

Could you kindly confirm the outcome this assay logged for "O=c1c2sc(-c3ccccc3)cc2nc2n1CCC2" ?
inactive

Test call, this molecule: "CC(=O)O/N=C(/c1nonc1N)N(C)C"
inactive

Outcome? "O=C(CCC(=O)Nc1nnc(C2CCCCC2)s1)NCc1ccc(F)cc1"
inactive
